Source of measurements: ChEMBL document CHEMBL2203025

# experiment_description: Selectivity index, ratio of CC50 for human HOS cells to EC50 for HIV1 expressing wild type integrase
# Type: toxicity, cell-based
# experimental_parameters: read-out: Ratio CC50/EC50
Decide using selectivity ratio alone. Strictly below 20: met. Equal to or above 20: not met.

• CN(C)S(=O)(=O)c1ccc(-c2c(O)c(O)c3c(c2S(=O)(=O)N(C)C)CN(Cc2ccc(F)c(Cl)c2)C3=O)cc1 = not met
• CC(C)c1c(O)c(O)c2c(c1S(=O)(=O)N(C)C)CN(Cc1ccc(F)c(Cl)c1)C2=O = met
• CC(C)c1c(O)c(O)c2c(c1S(=O)(=O)N1CCOCC1)CN(Cc1ccc(F)c(Cl)c1)C2=O = met
• CN1CCN(S(=O)(=O)c2cc(O)c(O)c3c2CN(Cc2ccc(F)c(Cl)c2)C3=O)CC1 = not met
• CN(C)S(=O)(=O)c1c(O)c(O)c(O)c2c1CN(Cc1ccc(F)c(Cl)c1)C2=O = not met

###

Reported pIC50 values for a set of molecules
# target_desc: Human immunodeficiency virus type 1 integrase (Human immunodeficiency virus 1, UniProt Q7ZJM1)
# Sequence (Q7ZJM1 whole entry): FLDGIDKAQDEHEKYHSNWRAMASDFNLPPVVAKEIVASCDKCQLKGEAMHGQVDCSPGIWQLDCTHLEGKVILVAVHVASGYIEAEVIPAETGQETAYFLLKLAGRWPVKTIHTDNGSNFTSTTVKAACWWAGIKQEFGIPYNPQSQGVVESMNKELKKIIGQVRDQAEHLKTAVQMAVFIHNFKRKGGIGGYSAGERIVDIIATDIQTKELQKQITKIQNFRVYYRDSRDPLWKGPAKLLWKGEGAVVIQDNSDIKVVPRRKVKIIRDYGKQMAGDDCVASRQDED
# experiment_description: Inhibition of HIV1 recombinant integrase 3' processing activity using [32P]-labeled oligonucleotide a substrate after 30 mins by electrophoretic analysis
pIC50: −log10 of the molar value.
experimental_endpoint: pIC50

• CNS(=O)(=O)c1cc(O)c(O)c2c1CN(Cc1ccc(F)c(Cl)c1)C2=O = 4.76
• CN1CCN(S(=O)(=O)c2cc(O)c(O)c3c2CN(Cc2ccc(F)c(Cl)c2)C3=O)CC1 = 4.64
• O=C1c2c(O)c(O)cc(S(=O)(=O)NCc3ccccn3)c2CN1Cc1ccc(F)c(Cl)c1 = 4.64
• CCN(CC)S(=O)(=O)c1cc(O)c(O)c2c1CN(Cc1ccc(F)c(Cl)c1)C2=O = 5.02
• CN(C)CCCNS(=O)(=O)c1cc(O)c(O)c2c1CN(Cc1ccc(F)c(Cl)c1)C2=O = 4.80
• O=C1c2c(O)c(O)cc(S(=O)(=O)NCCCBr)c2CN1Cc1ccc(F)c(Cl)c1 = 4.83
• Cc1c(O)c(O)c2c(c1S(=O)(=O)N(C)C)CN(Cc1ccc(F)c(Cl)c1)C2=O = 4.30
• CN(CC(=O)O)S(=O)(=O)c1cc(O)c(O)c2c1CN(Cc1ccc(F)c(Cl)c1)C2=O = 5.16
• NCCN1CCN(S(=O)(=O)c2cc(O)c(O)c3c2CN(Cc2ccc(F)c(Cl)c2)C3=O)CC1 = 4.67
• O=C1c2c(O)c(O)cc(S(=O)(=O)NCCN3CCOCC3)c2CN1Cc1ccc(F)c(Cl)c1 = 4.52
• O=C1c2c(O)c(O)cc(S(=O)(=O)N3CCOCC3)c2CN1Cc1ccc(F)c(Cl)c1 = 5.17

###

# Test system: Human immunodeficiency virus 1
# experiment_description: Antiviral activity against HIV1 expressing wild type integrase infected in HOS cells
# Type: functional, organism-based
# experimental_parameters: Human immunodeficiency virus 1, HOS
experimental_endpoint: EC50

- CN(C)S(=O)(=O)c1c(O)c(O)c(O)c2c1CN(Cc1ccc(F)c(Cl)c1)C2=O: 159 nM
- CN(CC(=O)O)S(=O)(=O)c1cc(O)c(O)c2c1CN(Cc1ccc(F)c(Cl)c1)C2=O: 140 nM
- CN(C)S(=O)(=O)c1ccc(-c2c(O)c(O)c3c(c2S(=O)(=O)N(C)C)CN(Cc2ccc(F)c(Cl)c2)C3=O)cc1: 132 nM
- CCN(CC)S(=O)(=O)c1cc(O)c(O)c2c1CN(Cc1ccc(F)c(Cl)c1)C2=O: 17 nM
- Cc1c(O)c(O)c2c(c1S(=O)(=O)N(C)C)CN(Cc1ccc(F)c(Cl)c1)C2=O: 322 nM
- CC(C)c1c(O)c(O)c2c(c1S(=O)(=O)N(C)C)CN(Cc1ccc(F)c(Cl)c1)C2=O: 3600 nM
- CNS(=O)(=O)c1cc(O)c(O)c2c1CN(Cc1ccc(F)c(Cl)c1)C2=O: 40 nM
